Hello, the source for this data is PubChem BioAssay (NCATS), in case you need it.

# experiment: Quantitative High-Throughput drug screen in 47 multiple myeloma cell lines against the NCATS MIPE library collection: AMO1_DSMZ cell viability assay (AID 1918927; note: nearly all actives have a fitted effect of over 30% in size)
# conditionsUsed: AMO1 myeloma cells viability, CellTiter-Glo ATP luminescence, 48 h; series mostly up to 45.8 µM
Records with an inconclusive call do not appear. Calls of active or inactive are those of the source. Calls come from the whole dose curve; as a rule, active = well fitted cell-killing curve with a large enough effect; inconclusive = small, poorly fitted or top-dose-only effect, or effect the other way; inactive = no such curve, though single readings can be large or run the other way.
Entry note: the call must match one of y = active, n = inactive

COc1ccc2c(c1)CC[C@H]1[C@@H]2CC[C@]2(C)[C@@H](NCCCCCCN3C(=O)C=CC3=O)CC[C@H]12 ... n
C=C[C@@H]1CN2CCC1C[C@@H]2C(O)c1ccnc2ccc(OC)cc12 (some centres undefined) ... n
C=C1c2cccc(O)c2C(O)=C2C(=O)[C@@]3(O)C(O)=C(C(N)=O)C(=O)[C@@H](N(C)C)[C@@H]3[C@@H](O)[C@H]12 ... n

(Q) Which result was noted for this molecule in the test: CN(C)CCN(C)C(=O)c1ccc(NC(=O)Nc2ccc(-c3nc(N4CCOCC4)c4ccn(CC(F)(F)F)c4n3)cc2)cc1
(A) y

(Q) Now consider O[C@@H](COc1cccc2ncccc12)CN1CCN(C2c3ccccc3[C@@H]3[C@H](c4ccccc42)C3(F)F)CC1 (some centres undefined) .
(A) n

(Q) Now consider O=C1NC(=O)C(=Cc2ccc(-c3ccc(F)cc3O)o2)S1 .
(A) y

(Q) Now consider CC(=O)Nc1cccc(-n2c(=O)n(C3CC3)c(=O)c3c(Nc4ccc(I)cc4F)n(C)c(=O)c(C)c32)c1 .
(A) y

(Q) Now consider Cc1cc2c(cc1C1(c3ccc(C(=O)O)cn3)CC1)C(C)(C)CCC2(C)C .
(A) y

(Q) Now consider CCc1cc(-c2n[nH]c(C)c2-c2ccc3c(c2)OCCO3)c(O)cc1O .
(A) y

====

# experiment: qHTS Screen of the MIPE 4.0 Collection Against Ewings Sarcoma (TC32) (AID 1259256); note: nearly all actives have a fitted effect of over 45% in size
# conditionsUsed: TC32 Ewing sarcoma viability, CellTiter-Glo, 48 h; series mostly up to 45.8 µM
Records with an inconclusive call do not appear. Calls of active or inactive are those of the source. Calls come from the whole dose curve; as a rule, active = well fitted inhibition curve with a large enough effect; inconclusive = small, poorly fitted or top-dose-only effect; inactive = no such curve, though single readings can be large or run the other way.
Entry note: the call must match one of active, inactive

Recorded results for 4 molecules are shown here.
CCc1cc(-c2n[nH]c(C)c2-c2ccc3c(c2)OCCO3)c(O)cc1O ... active
Nc1nc(Cl)nc2c1ncn2[C@@H]1O[C@H](CO)[C@@H](O)[C@H]1F ... inactive
CCCCC[C@H](O)C=C[C@H]1[C@H](O)CC(=O)[C@H]1CC=CCCCC(=O)O ... active
N[C@@H](CC(=O)N1CCn2c(nnc2C(F)(F)F)C1)Cc1cc(F)c(F)cc1F ... active

(Q) Which result was noted for this molecule in the test: C[C@]12CC[C@@H]3c4ccc(O)cc4CC[C@H]3[C@H]1[C@@H](O)[C@@H](O)[C@H]2O
(A) inactive

(Q) Now consider NCc1c[nH]c(=S)n1[C@H]1CCc2c(F)cc(F)cc2C1 .
(A) active

====

# Tested on: MCC-26
# experiment: qHTS assay to identify novel small-molecules to repurpose for Merkel cell carcinoma treatment (AID 1296009); note: nearly all actives have a fitted effect of over 60% in size
# conditionsUsed: MCC and control cell lines, CellTiter-Glo viability, 72 h; series mostly up to 46 µM
Results filed as inconclusive are left out. Activity calls are given as the source filed them. Calls come from the whole dose curve; as a rule, active = well fitted inhibition curve with a large enough effect; inconclusive = small, poorly fitted or top-dose-only effect; inactive = flat fitted curve, though single readings scatter.
attributeMeasured: outcome

# count of solved cases: 5
CC(C)CNc1ccnc(NCc2csc(-c3ccccc3)n2)n1 ... inactive
COc1cc(F)c(C(C)C)cc1-c1ccc(C(F)(F)F)cc1CN1C(=O)O[C@H](c2cc(C(F)(F)F)cc(C(F)(F)F)c2)[C@@H]1C ... inactive
CCOC(=O)[C@@H](N)CCC(=O)N[C@@H](CSCc1ccccc1)C(=O)N[C@@H](C(=O)OCC)c1ccccc1 ... inactive
CC=C(C(=CC)c1ccc(O)cc1)c1ccc(O)cc1 ... inactive
CC(O)=C(C#N)C(=O)Nc1ccc(C(F)(F)F)cc1 ... inactive

Look up outcome for the entries below, preserving their order.
1. COc1nc(C)cnc1NS(=O)(=O)c1cccnc1-c1ccc(-c2nnco2)cc1
2. Cc1csc(-c2nnc(Nc3ccc(Oc4ncccc4-c4ccnc(N)n4)cc3)c3ccccc23)c1
3. O=c1[nH]nc(OCCCc2ccc(Cl)cc2)c(NCc2cccnc2)c1Br
4. CN(C)N=Nc1nc[nH]c1C(N)=O
5. OC(c1cc(C(F)(F)F)nc2c(C(F)(F)F)cccc12)C1CCCCN1 (stereo not given)

(A)
1. inactive
2. inactive
3. inactive
4. inactive
5. inactive

====

# experiment: qHTS of pediatric cancer cell lines to identify multiple opportunities for drug repurposing: Primary screen for NB-EBc1 cells (AID 1347095); note: potency is the fitted concentration of half-maximal effect
# conditionsUsed: NB-EBc1 neuroblastoma viability, CellTiter-Glo luminescence, 48 h; series mostly up to 46 µM
Records with an inconclusive call do not appear. Active and inactive are the calls of the source. The call rests on the fitted dose curve; in most records, active means well fitted cell-killing curve with a large enough effect; inconclusive means small, poorly fitted or top-dose-only effect; inactive means no such curve, though single readings can be large or run the other way.
attributeMeasured: Potency

# count of solved cases: 8
COC(=O)N1CCN(Cc2cccc(NC(=O)Nc3ccc(C)nc3)c2F)CC1 ... inactive
CC(=O)OCC(=O)[C@@]1(O)CC[C@H]2[C@@H]3CCC4=CC(=O)C=C[C@]4(C)[C@@H]3[C@@H](O)C[C@@]21C ... inactive
CC(C)(C)c1nc(-c2cccc(NS(=O)(=O)c3c(F)cccc3F)c2F)c(-c2ccnc(N)n2)s1 ... inactive
Nc1[nH]nc2nnc(-c3c(-c4ccccc4)nn4ccccc34)cc12 ... 3.32 µM (active)
COc1cc(Nc2nc3ccccc3nc2NS(=O)(=O)c2ccc(NC(=O)c3ccc(C)c(OC)c3)cc2)cc(OC)c1 ... 26.4 µM (active)
COc1cc2nccc(Oc3ccc(NC(=O)Nc4ccc(F)cc4F)c(F)c3)c2cc1OC ... 2.35 µM (active)
CN1c2ccccc2C(=O)N2CCc3c([nH]c4ccccc34)C21 (centres undefined) ... inactive
CC=C1C2C=C(C)CC1(N)c1ccc(=O)[nH]c1C2 (centres undefined) ... inactive

(Q) Report Potency for CCCCCOC(=O)Nc1nc(=O)n([C@@H]2O[C@H](C)[C@@H](O)C2O)cc1F (some centres undefined) please.
(A) inactive

====

# System: CP217
# experiment: qHTS profiling for inhibitors of Plasmodium falciparum proliferation (AID 504749); note: nearly all actives have a fitted effect of over 60% in size
# conditionsUsed: P. falciparum in erythrocytes, SYBR Green DNA, 72 h; series mostly up to 28.7 µM
Records with an inconclusive call do not appear. Active and inactive are the calls of the source. The call rests on the fitted dose curve; in most records, active means well fitted inhibition curve with a large enough effect; inconclusive means small, poorly fitted or top-dose-only effect; inactive means flat fitted curve, though single readings scatter.
attributeMeasured: outcome

# count of solved cases: 5
N#Cc1c(N(CC(=O)O)CC(=O)O)sc(C(=O)O)c1CC(=O)O ... inactive
CS(=O)(=O)c1ccc(C2=C(c3ccccc3)C(=O)OC2)cc1 ... inactive
CN1CC(=O)N2C(Cc3c([nH]c4ccccc34)[C@H]2c2ccc3c(c2)OCO3)C1=O (stereo partly specified) ... inactive
C=C1c2cccc(O)c2C(O)=C2C(=O)[C@@]3(O)C(O)=C(C(N)=O)C(=O)[C@@H](N(C)C)[C@@H]3[C@@H](O)[C@H]12 ... inactive
O=C1C(CCC(O)c2ccc(F)cc2)C(c2ccc(O)cc2)N1c1ccc(F)cc1 (stereo unspecified) ... inactive

// below: outcome requested for another compound
(Q) Report outcome for CN1CCN2c3ncccc3Cc3ccccc3C2C1 (stereo unspecified) please.
(A) inactive

====

For each entry below, report its Potency value.
# experiment: qHTS Screen of the MIPE 4.0 Collection Against Ewings Sarcoma (TC32) (AID 1259256); note: nearly all actives have a fitted effect of over 45% in size; note: potency is the fitted concentration of half-maximal effect
# conditionsUsed: TC32 Ewing sarcoma viability, CellTiter-Glo, 48 h; series mostly up to 45.8 µM
Results filed as inconclusive are left out. Calls of active or inactive are those of the source. The call rests on the fitted dose curve; in most records, active means well fitted inhibition curve with a large enough effect; inconclusive means small, poorly fitted or top-dose-only effect; inactive means no such curve, though single readings can be large or run the other way.

# count of solved cases: 3
O=C(CC12CC3CC(CC(C3)C1)C2)Nc1cccc2nc(NCCNCCO)ccc12 ... 13.2 µM (active)
O=C(CCCN1CCN(c2ccc(F)cc2)CC1)NC1c2ccccc2CSc2ccccc21 (stereo unspecified) ... 16.6 µM (active)
Oc1ccc(C=Cc2cc(O)cc(O)c2)cc1 ... 18.7 µM (active)

Look up Potency for the entries below, preserving their order.
1. N=C1SC(=Cc2ccc(-c3ccc4c(c3)C(=O)NC4=O)o2)C(=O)N1c1ccc(Br)cc1
2. NC(=O)c1nnn(Cc2cc(Cl)c(C(=O)c3ccc(Cl)cc3)c(Cl)c2)c1N
3. CN1c2ccccc2C(=O)N2CCc3c([nH]c4ccccc34)C21 (stereo unspecified)

(A)
1. 18.7 µM (active)
2. 20.9 µM (active)
3. 14.8 µM (active)

====

# experiment: P-glycoprotein substrates identified in KB-3-1 adenocarcinoma cell line, qHTS therapeutic library screen (AID 1346986); note: nearly all actives have a fitted effect of over 60% in size
# conditionsUsed: KB-3-1 parental cells viability, CellTiter-Glo, 72 h; series mostly up to 44.5 µM
Inconclusive results are not listed. Active and inactive are the calls of the source. The call rests on the fitted dose curve; in most records, active means well fitted inhibition curve with a large enough effect; inconclusive means small, poorly fitted or top-dose-only effect; inactive means no such curve, though single readings can be large or run the other way.
Entry note: the call must match one of active, inactive

Recorded results for 6 compounds are shown here.
COc1nccc(-c2c(-c3ccc(F)cc3)ncn2C2CCNCC2)n1 ... inactive
CCOC(=O)N1CCN([N+]([O-])=NOc2cc(ON=[N+]([O-])N3CCN(C(=O)OCC)CC3)c([N+](=O)[O-])cc2[N+](=O)[O-])CC1 ... inactive
Cc1ccc2c(=O)c3cccc(CC(=O)O)c3oc2c1C ... inactive
CN(C)c1ccc(-c2nc3ncc(Cl)c(N4CCN(CC(=O)Nc5nccs5)CC4)c3[nH]2)cc1 ... inactive
COc1nccc(-c2c(-c3ccc(F)cc3)ncn2C2CCC(O)CC2)n1 (centres undefined) ... inactive
Cc1cc2c(cc1C1(c3ccc(C(=O)O)cn3)CC1)C(C)(C)CCC2(C)C ... inactive

(Q) Which result was noted for this compound in the test: Cc1ccc(S(=O)(=O)OCC(=O)Nc2ccc(C(=O)O)c(O)c2)cc1
(A) inactive

(Q) Now consider COC(=O)[C@H](c1ccccc1Cl)N1CCc2sccc2C1 .
(A) inactive

(Q) Now consider CCCCCCCCCCCCCCCC(=O)O[C@H]1[C@@H](O)[C@@H](O)[C@@H]([C@H](NC(=O)[C@@H]2C[C@@H](CCC)CN2C)[C@H](C)Cl)O[C@@H]1SC .
(A) inactive

(Q) Now consider CC(C)Oc1cc(Nc2nc(N[C@@H](C)c3ccc(F)cn3)ncc2Cl)[nH]n1 .
(A) active

(Q) Now consider NC(=O)c1ccc(N(C(N)=O)c2c(F)cccc2F)nc1-c1ccc(F)cc1F .
(A) inactive

(Q) Now consider CNc1nc(Nc2ccc(C(=O)N3CCOCC3)cc2OC)ncc1Cl .
(A) inactive
